Listed binders paired with reported PRNT80 titer (µg/ml), plaque reduction neutralization of WNV on Vero cells
# target desc: West Nile virus E protein on WNV strain 2741 virions (West Nile virus, UniProt Q9Q6P4 291-791)
# Sequence (Q9Q6P4 291-791 limits assumed): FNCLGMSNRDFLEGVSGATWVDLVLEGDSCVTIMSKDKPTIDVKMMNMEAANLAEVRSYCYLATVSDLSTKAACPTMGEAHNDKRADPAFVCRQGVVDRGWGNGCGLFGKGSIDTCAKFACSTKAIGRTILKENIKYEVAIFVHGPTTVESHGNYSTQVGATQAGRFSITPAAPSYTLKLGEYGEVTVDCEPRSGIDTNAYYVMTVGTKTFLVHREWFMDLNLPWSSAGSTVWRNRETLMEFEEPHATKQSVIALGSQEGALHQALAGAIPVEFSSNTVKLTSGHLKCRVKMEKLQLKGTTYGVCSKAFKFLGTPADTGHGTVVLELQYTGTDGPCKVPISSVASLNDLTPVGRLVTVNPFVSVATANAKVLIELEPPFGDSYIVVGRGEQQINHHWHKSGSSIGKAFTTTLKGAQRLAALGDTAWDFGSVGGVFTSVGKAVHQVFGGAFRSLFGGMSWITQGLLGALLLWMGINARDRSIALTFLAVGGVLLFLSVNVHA
# assay procedure: cell-based or functional assay
measurement type: PRNT80 titer (µg/ml), plaque reduction neutralization of WNV on Vero cells (µg/mL)

• 84 scFv-Fc (Fc fusion, also called scFv-Fc 84) QVQLVQSGAEVKKPGASVKVSCKASGYTFSGYSTHWLRQVPGQGLEWIGWDNPSSGDTTYAENFRGRVTLTRDTSITTDYLEVRGLRSDDTAVYYCARGGDDYSFDHWGQGTLVTVSSGGGGSGGGGSGGGGSQSVLTQPPSVSVAPGKTARIPCGGNNSGTKSVHWYQQKPGQAPVLVIYDDRVRPSGIPERFSGSNSGDTATLTISRVAAGDEADYYCQVSDGSGDPPTWVFGGGTRLTVL = 12.5
• 79 scFv-Fc (Fc fusion, also called scFv-Fc 79; antibody 79 (scFv-Fc)) QVQLVQSGAEVKKPGSSVKVSCKASGGTFSSYAISWVRQAPGQGLEWMGWMNSNTGDTGYAQKFQGRVTMTRNTSTSTAYMELSSLRSEDTAVYYCAKISNYHYYAMDVWGQGTLVTVSSGGGGSGGGGSGGGGSLPVLTQPPSASGTSGQTVTISCSGGSSNIGSHLVTWYQQFPGTAPKVLIHTNDQRPSGVPDRISGSKSGTSASLAISGLQSDDEGDYYCAAWDDSLNGYVFGTGTKVTVLG = 5
• scFv-Fc 15 (Fc fusion, also called 15 scFv-Fc) QVQLVQSGAEVKKPGASVKVSCKASGYTFSGYSTHWLRQVPGQGLEWIGWDNPSSGDTTYAENFRGRVTLTRDTSITTDYLEVRGLRSDDTAVYYCARGGDDYSFDHWGQGTLVTVSSGGGGSGGGGSGGGGSQSALTQPASVSGSPGQSITISCTGTNSDVGIYNLVSWYQQHPGKAPKLMIYDVSNRPSGVSSRFSGSNSGNTATLTISGLQAEDEADYYCSAHAGDNTQFGGGTKLTVLS = 1.25
• scFv-Fc 73 (Fc fusion, also called 73 scFv-Fc) QVQLVQSGAEVKKPGASVKVSCKASGYTFSGYSTHWLRQVPGQGLEWIGWDNPSSGDTTYAENFRGRVTLTRDTSITTDYLEVRGLRSDDTAVYYCARGGDDYSFDHWGQGTLVTVSSGGGGSGGGGSGGGGSSYELTQPPSASGTPGQRVTISCSGSSSNIGSNTVNWYQQLPGTAPKLLIYSNNQRPSGVPDRFSGSKSGTSASLAISGLQSEDEADYYCAAWDARLTGPLFGGGTKLSVLR = 1.25
• scFv-Fc 11 (Fc fusion, also called 11 scFv-Fc) QVQLVQSGAEVKKPGASVKVSCKASGYTFSGYSTHWLRQVPGQGLEWIGWDNPSSGDTTYAENFRGRVTLTRDTSITTDYLEVRGLRSDDTAVYYCARGGDDYSFDHWGQGTLVTVSSGGGGSGGGGSGGGGSSSELTQDPAVSVALGQTVRITCRGDSLRSYYASWYQQKPGQAPVLVIYGENNRPSGIPDRFSGSSSGDTASLTITGAQAEDEADYYCNSRDSSDHLLLFGGGTKL = 1.25
• scFv-Fc 71 (Fc fusion, also called 71 scFv-Fc) QVQLVQSGAEVKKPGASVKVSCKASGYTFSGYSTHWLRQVPGQGLEWIGWDNPSSGDTTYAENFRGRVTLTRDTSITTDYLEVRGLRSDDTAVYYCARGGDDYSFDHWGQGTLVTVSSGGGGSGGGGSGGGGSSYELTQPPSASGTTGQRVTISCSGSSSNIGSNTVNWYQQLPGTAPKLLIYSNNQRPSGVPDRLSGSKSGTSASLAISGLQSEDEADYYCAAWDARLTGPLFGGGTKLSVLR = 2.5
